Data provenance is patent US5679640A.

# assay: in vitro
# reported-conditions: human, serum
Non-standard residues stand in square brackets, D forms with d. Residues, ends and D or L forms follow the SMILES beside them. *: point of attachment. Acetyl(1-adamantyl) = O=C(CC12CC3CC(CC(C3)C1)C2)*
recorded-endpoint: half-life at 50 µg/mL (h)
Express your answer in h, writing the number without its unit.

q: Dear colleague, I am looking for the recorded half-life at 50 µg/mL of the following compound: C[C@H](NC(=O)CC12CC3CC(CC(C3)C1)C2)C(=O)N[C@@H](C)C(=O)N[C@@H](C)C(=O)N[C@@H](CCCCN)C(=O)N[C@H](C(=O)N[C@@H](C)C(=O)N[C@@H](C)C(=O)N[C@@H](C)C(=O)N[C@@H](Cc1ccccc1)C(=O)N[C@H](C)C(=O)O)[C@@H](C)O ({Acetyl(1-adamantyl)}-AAAKTAAAF[dA]-OH; C-terminus assumed)
a: 7.2

====

# assay: in vitro
# reported-conditions: human, serum
Non-standard residues stand in square brackets, D forms with d. Residues, ends and D or L forms follow the SMILES beside them.
Entries annotated with measured half-life
# output: bare number, implied unit h

Reference set (2 entries):
molecule: C[C@H](NC(=O)[C@H](N)Cc1ccc(O)cc1)C(=O)N[C@@H](C)C(=O)N[C@@H](Cc1ccccc1)C(=O)N[C@@H](C)C(=O)N[C@@H](C)C(=O)N[C@@H](C)C(=O)N[C@@H](CCCCN)C(=O)N[C@H](C(=O)N[C@@H](C)C(=O)N[C@@H](C)C(=O)N[C@@H](C)C(=O)N[C@@H](Cc1ccccc1)C(=O)N[C@H](C)C(N)=O)[C@@H](C)O (H-[dY]AAFAAAKTAAAF[dA]-NH2)
recorded-endpoint: half-life
experimental-value: 5

molecule: C[C@H](NC(=O)[C@H](N)Cc1ccc(O)cc1)C(=O)N[C@@H](C)C(=O)N[C@@H](Cc1ccccc1)C(=O)N[C@@H](C)C(=O)N[C@@H](C)C(=O)N[C@@H](C)C(=O)N[C@@H](CCCCN)C(=O)N[C@H](C(=O)N[C@@H](C)C(=O)N[C@@H](C)C(=O)N[C@@H](C)C(=O)N[C@@H](C)C(=O)N[C@H](C)C(=O)O)[C@@H](C)O (H-[dY]AAFAAAKTAAAA[dA]-OH)
recorded-endpoint: half-life
experimental-value: 8.85

# ---- query molecule ----
q: Field request: half-life | item: CC(=O)N[C@H](Cc1ccc(O)cc1)C(=O)N[C@@H](C)C(=O)N[C@@H](C)C(=O)N[C@@H](Cc1ccccc1)C(=O)N[C@@H](C)C(=O)N[C@@H](C)C(=O)N[C@@H](C)C(=O)N[C@@H](CCCCN)C(=O)N[C@H](C(=O)N[C@@H](C)C(=O)N[C@@H](C)C(=O)N[C@@H](C)C(=O)N[C@@H](C)C(=O)N[C@H](C)C(=O)O)[C@@H](C)O (Ac-[dY]AAFAAAKTAAAA[dA]-OH)
a: 6.77

====

# assay-target: HLA-DR1 (Homo sapiens, UniProt P01903+P01911, A100R/D57E/F55L/F60I/F76Y/I96L/L162R/M171V/P40L/Q125E/R42F/V115G/Y59C)
# Construct: EBV-transformed homozygous cell lines were used as a source of DR molecules; endogenous in cells; host or cells: LG-2 (EBV-transformed human B cell line, DR1 homozygous); lysate purified on a monoclonal antibody LB3.1 column
# assay: DR-peptide binding assay, DR1
# reported-conditions: Table 3, binding affinity relative to HA 307-319 = 1
Non-standard residues stand in square brackets, D forms with d. Residues, ends and D or L forms follow the SMILES beside them.

compound: C[C@H](NC(=O)[C@H](C)NC(=O)[C@H](C)NC(=O)[C@@H](NC(=O)[C@H](CCCCN)NC(=O)[C@H](C)NC(=O)[C@H](C)NC(=O)[C@H](C)NC(=O)[C@H](Cc1ccccc1)NC(=O)[C@@H](C)N)[C@@H](C)O)C(=O)N[C@@H](C)C(=O)N[C@H](C)C(N)=O (H-[dA]FAAAKTAAAA[dA]-NH2)
MHC Binding Assay DR1: + (0.51 to 1.0)
--
compound: CC(=O)N[C@H](C)C(=O)N[C@@H](C)C(=O)N[C@@H](CC1CCCCC1)C(=O)N[C@@H](C)C(=O)N[C@@H](C)C(=O)N[C@@H](C)C(=O)N[C@@H](CCCCN)C(=O)N[C@H](C(=O)N[C@@H](C)C(=O)N[C@@H](C)C(=O)N[C@@H](C)C(=O)N[C@@H](C)C(=O)N[C@H](C)C(N)=O)[C@@H](C)O
MHC Binding Assay DR1: + (0.51 to 1.0)
